assay name: KB-3-1 Cancer Cell Toxicity qHTS against the NCATS CANVASS Library (AID 1347366); note: nearly all actives have a fitted effect of over 75% in size
assay context: KB-3-1 viability, CellTiter-Glo luminescence, 72 h; series mostly up to 46.1 µM
Results filed as inconclusive are left out. Activity calls are given as the source filed them. Calls come from the whole dose curve; as a rule, active = well fitted cell-killing curve with a large enough effect; inconclusive = small, poorly fitted or top-dose-only effect; inactive = flat fitted curve, though single readings scatter.
Allowed answers: 1 (yes) for active, 0 (no) for inactive

CNCCc1c[nH]c2ccccc12
0 (no)
CNCCc1ccccc1
0 (no)
O=C(c1ccccc1O)c1[nH]c(Cl)c(Cl)c1-n1c(C(=O)c2ccccc2O)cc(Cl)c1Cl
1 (yes)
C[C@@H]1CC[C@@H](c2ccoc2)N2C[C@@]3(CC[C@@H]12)CS[C@@]1(CC[C@H]2[C@H](C)CC[C@@H](c4ccoc4)N2[C@@H]1O)C3
1 (yes)
CC[N@@+]1([O-])C[C@]2(C)CC[C@@H](O)[C@@]34C5C[C@H]6CC[C@@]5(C(C[C@H]23)C41)[C@H](O)[C@@]6(O)CO (stereo not given in full)
0 (no)

[in] Field: outcome | Entry: `NCCc1ccccc1`
[out] 0 (no)

[in] Same question, `CO[C@@H](/C=C/CC/C=C/C(=O)O)[C@@H](O)[C@H](C)/C=C(\C)[C@@H](O)[C@H](C)C(=O)CCCC1CC(=O)NC(=O)C1` this time
[out] 0 (no)

[in] Same question, `COc1ccc2c(c1)[nH]c1c(C)nccc12` this time
[out] 1 (yes)

[in] Same question, `CCC[C@H]1CC[C@H]2[C@H](C)CCC[C@H]2N1` this time
[out] 0 (no)

[in] Same question, `C/C=C1/CN2CC[C@]34C(=Nc5ccccc53)[C@@H]2C[C@@H]1[C@H]4C(=O)OC` this time
[out] 0 (no)

====

Test system: C2A
assay name: qHTS profiling for inhibitors of Plasmodium falciparum proliferation (AID 504749); note: nearly all actives have a fitted effect of over 60% in size
assay context: P. falciparum in erythrocytes, SYBR Green DNA, 72 h; series mostly up to 28.7 µM
Inconclusive results are not listed. Active and inactive are the calls of the source. The call rests on the fitted dose curve; in most records, active means well fitted inhibition curve with a large enough effect; inconclusive means small, poorly fitted or top-dose-only effect; inactive means flat fitted curve, though single readings scatter.
Allowed answers: active, inactive

Illustrative cases are given below, each with its answer.
CO[C@H]1[C@@H](O)CC(OC2[C@@H](O)CC(OC3[C@@H](O)C[C@H](OC4CC[C@@]5(C)C(CCC6C5CC(O)[C@]5(C)[C@H](C7=CC(=O)OC7)CCC65O)C4)O[C@@H]3C)O[C@@H]2C)O[C@@H]1C (stereo not given in full)
inactive
Cc1cccc([C@H](C)c2cnc[nH]2)c1C
inactive
C[N+](C)(C)CC(=O)[O-]
inactive
CCN(CC)CCO[C@H]1CC[C@@]2(C)C(=CC[C@@H]3[C@H]2CC[C@]2(C)C(=O)CC[C@H]32)C1
inactive

Here is another compound to look at.
[in] Field: outcome | Entry: `CCCCCCCCCC[N+](C)(C)CCCCCCCCCC`
[out] active

====

assay name: qHTS for Inhibitors of the Functional Ribonucleoprotein Complex (vRNP) of Lymphocytic Choriomeningitis Arenaviruses (LCMV): Viability assay - alamar blue signal for LCMV Primary Screen (AID 1347085); note: nearly all actives have a fitted effect of over 80% in size
assay context: alamar blue viability counter-screen, LCMV vRNP screen cells; series mostly up to 57.5 µM
Results filed as inconclusive are left out. Active and inactive are the calls of the source. Calls come from the whole dose curve; tested in HEK293 reporter line.
Allowed answers: true (1) (active), false (0) (inactive)

Illustrative cases are given below, each with its answer.
CCCC1OC2C[C@@H]3[C@H]4CCC5=CC(=O)C=C[C@]5(C)[C@H]4C(O)C[C@]3(C)[C@]2(C(=O)CO)O1 (some centres not stated)
false (0)
NCCCNCCCCNCCCN
false (0)
O=c1[nH]c2cc([N+](=O)[O-])c([N+](=O)[O-])cc2[nH]c1=O
false (0)

[in] Field: outcome | Entry: `CN1CCc2cc(NC(=O)Nc3cccnc3)ccc21`
[out] false (0)

====

assay name: qHTS for Inhibitors of the Functional Ribonucleoprotein Complex (vRNP) of Lassa (LASV) Arenavirus: LASV Primary Screen - GLuc reporter signal (AID 1347082); note: nearly all actives have a fitted effect of over 60% in size
assay context: LASV minigenome vRNP, Gaussia luciferase reporter; series mostly up to 57.5 µM
Records with an inconclusive call do not appear. The source made the active and inactive calls. The call rests on the fitted dose curve; tested in HEK293 reporter line.
Allowed answers: active, inactive

C=CC(C)(CCC=C(C)C)OC(=O)CC (stereo not given)
inactive
O=C(CCN1CCN(C(=O)OCc2cc(Cl)cc(Cl)c2)CC1)c1ccc2[nH]c(=O)oc2c1
inactive
CC1=C(C(=O)Nc2cc3cn[nH]c3cc2F)C(c2ccc(C(F)(F)F)cc2)CC(=O)N1 (stereo not given)
inactive
O=C(CO)N1CCC(c2[nH]nc(-c3ccc(Cl)cc3)c2-c2ccncn2)CC1
inactive
NC[C@@H]1O[C@H](C23CC4CC(CC(C4)C2)C3)Cc2c1ccc(O)c2O
inactive

[in] Field: outcome | Entry: `C#CCn1c(=O)c2c(ncn2C)n(C)c1=O`
[out] inactive

[in] Same question, `CC(=O)OC[C@]12CCC(C)=C[C@H]1O[C@@H]1[C@H](O)[C@@H](OC(C)=O)[C@@]2(C)[C@]12CO2` this time
[out] inactive

[in] Same question, `CC(=O)c1c(O)cccc1O` this time
[out] inactive

[in] Same question, Nc1ncnc2c1ncn2[C@@H]1O[C@H](COP(=O)(O)OP(=O)(O)OC[C@H]2OC(O)[C@H](O)[C@@H]2O)[C@@H](O)[C@H]1O (stereo not given in full) this time
[out] inactive

[in] Same question, `CNC(=O)c1ccc(N2C(=S)N(c3cnc(C#N)c(C(F)(F)F)c3)C(=O)C23CCC3)cc1F` this time
[out] active

====

assay name: Cytotoxicity counterscreen for inhibitors of SARS-CoV-2 cell entry (AID 1645845); note: nearly all actives have a fitted effect of over 50% in size
assay context: cell viability (SARS-CoV-2 entry assay cells); series mostly up to 57.1 µM
Inconclusive results are not listed. The source made the active and inactive calls. Calls follow the shape of the full dose curve.
Allowed answers: yes (active), no (inactive)

Illustrative cases are given below, each with its answer.
NCCCCNCCCN
no
CCCC1OC2C[C@@H]3[C@H]4CCC5=CC(=O)C=C[C@]5(C)[C@H]4C(O)C[C@]3(C)[C@]2(C(=O)CO)O1 (stereo not given in full)
no
CN(C/C=C/c1ccccc1)Cc1cccc2ccccc12
no

[in] Field: outcome | Entry: `O=c1cc(N2CCOCC2)oc2c(-c3ccccc3)cccc12`
[out] no

[in] Same question, CCCCCCCCCCCC(CC1OC(=O)C1CCCCCC)OC(=O)C(CC(C)C)NC=O (stereo not given) this time
[out] no

[in] Same question, `CC[C@H](C)C(=O)O[C@H]1CCC=C2C=C[C@H](C)[C@H](CC[C@@H]3C[C@@H](O)CC(=O)O3)[C@H]21` this time
[out] no

[in] Same question, `COC(=O)C[C@](O)(CCCC(C)(C)O)C(=O)O[C@@H]1C(OC)=C[C@]23CCCN2CCc2cc4c(cc2[C@H]13)OCO4` this time
[out] no

[in] Same question, `Cc1cc(Cl)ccc1OCCCC(=O)NO` this time
[out] no

[in] Same question, C[C@@H]1C(=O)O[C@H]2CC34[C@H]5C[C@@H](C(C)(C)C)C36[C@H](OC(=O)[C@@H]6O)O[C@@]4(C(=O)O5)[C@]21O (stereo not given in full) this time
[out] no

[in] Same question, CC1=C(C(=O)Nc2cc3cn[nH]c3cc2F)C(c2ccc(C(F)(F)F)cc2)CC(=O)N1 (stereo not given) this time
[out] no

====

assay name: Primary qHTS for inhibitors of nuclear receptor binding SET domain protein 2 (NSD2) in an RCH-ACV wild type WT cells (2C) (AID 1645877); note: nearly all actives have a fitted effect of over 70% in size
assay context: RCH-ACV (leukaemia line) NSD2 WT (2C) viability, CellTiter-Glo, 72 h; series mostly up to 44.9 µM
Description: Assay Provider: Jonathan D. Licht, MD University of Florida College of Medicine, Gainesville, FL Mutations in epigenetic regulators are common in relapsed pediatric acute lymphoblastic leukemia (ALL). Here, we uncovered the mechanism underlying the relapse of ALL driven by an activating mutation of the NSD2 histone methyltransferase (p.E1099K). […] Correction of this mutation restored glucocorticoid sensitivity. […]
Results filed as inconclusive are left out. Calls of active or inactive are those of the source. Calls come from the whole dose curve; as a rule, active = well fitted inhibition curve with a large enough effect; inconclusive = small, poorly fitted or top-dose-only effect; inactive = no such curve, though single readings can be large or run the other way.
Allowed answers: active, inactive

CN1CCN(c2nc3ccccc3nc2Cl)CC1
inactive

[in] Field: outcome | Entry: CCCCN1[C@@H]2CC[C@H]1CC(OC(c1ccc(F)cc1)c1ccc(F)cc1)C2 (stereo partly specified)
[out] active

[in] Same question, `COc1cc(C(=O)N2CC[C@@H](O)[C@@H](N)C2)cc2nc(-c3cc4ccccc4n3CC3CC3)n(C)c12` this time
[out] active

[in] Same question, `CN1C(=O)CN=C(c2ccccc2Cl)c2cc(Cl)ccc21` this time
[out] inactive

[in] Same question, `C=C1C(=O)O[C@@H]2[C@H]3C(=C)[C@@H](O)C[C@H]3C(=C)C[C@@H](O)[C@@H]12` this time
[out] active

[in] Same question, `c1cncc(OC[C@@H]2CCN2)c1` this time
[out] inactive

[in] Same question, C[C@]12CC[C@H](O[C@@H]3O[C@H](CO)[C@@H](O)[C@H](O)[C@H]3O)CC1CC[C@@H]1C2CC[C@]2(C)[C@@H](C3=CC(=O)OC3)CC[C@]12O (stereo partly specified) this time
[out] active

Source listed as PubChem BioAssay (NCATS).
